- System: Staphylococcus aureus
- protocol.notes: Antimicrobial activity against methicillin-resistant Staphylococcus aureus by agar dilution method
- Assay type: functional
readout.kind: MIC90
The answer should read as a number with its unit following.

Consider the reported MIC90 for these compounds:
CC(=O)NC[C@H]1CN(c2ccc(N3CCOCC3)c(F)c2)C(=O)O1 [LINEZOLID]	2 µg/mL
CN[C@H](CC(C)C)C(=O)N[C@H]1C(=O)N[C@@H](CC(N)=O)C(=O)N[C@H]2C(=O)N[C@H]3C(=O)N[C@H](C(=O)N[C@H](C(=O)O)c4cc(O)cc(O)c4-c4cc3ccc4O)[C@H](O)c3ccc(c(Cl)c3)Oc3cc2cc(c3O[C@@H]2O[C@H](CO)[C@@H](O)[C@H](O)[C@H]2O[C@H]2C[C@](C)(N)[C@H](O)[C@H](C)O2)Oc2ccc(cc2Cl)[C@H]1O [VANCOMYCIN]	1 µg/mL
CN(C)c1ccc(O)c2c1C[C@H]1C[C@H]3[C@H](N(C)C)C(O)=C(C(N)=O)C(=O)[C@@]3(O)C(O)=C1C2=O [MINOCYCLINE]	0.25 µg/mL

Next item in the queue.
*Q* Form field: reported MIC90 of COc1ncc(C2c3ccccc3C=NN2C(=O)/C=C/c2cc(Cc3cnc(N)nc3N)cc(OC)c2OC)cn1 (centres undefined)
*A* 0.06 µg/mL

---

The molecules listed here are annotated with their MIC50.
- System: Streptococcus sp. 'group B'
- protocol.notes: Antimicrobial activity against Group B Streptococcus by agar dilution method
- Type: functional
Please give a number only; it is taken to be in µg/mL.

CC(=O)NC[C@H]1CN(c2ccc(N3CCOCC3)c(F)c2)C(=O)O1 [LINEZOLID]	1

Next item in the queue.
*Q* Form field: reported MIC50 of CN[C@H](CC(C)C)C(=O)N[C@H]1C(=O)N[C@@H](CC(N)=O)C(=O)N[C@H]2C(=O)N[C@H]3C(=O)N[C@H](C(=O)N[C@H](C(=O)O)c4cc(O)cc(O)c4-c4cc3ccc4O)[C@H](O)c3ccc(c(Cl)c3)Oc3cc2cc(c3O[C@@H]2O[C@H](CO)[C@@H](O)[C@H](O)[C@H]2O[C@H]2C[C@](C)(N)[C@H](O)[C@H](C)O2)Oc2ccc(cc2Cl)[C@H]1O [VANCOMYCIN]
*A* 0.25

---

- Test system: Corynebacterium sp.
- protocol.notes: Antimicrobial activity against Corynebacterium spp. by agar dilution method
- Type: functional
readout.kind: MIC50
The answer should read as a number with its unit following.

Consider the reported MIC50 for these molecules:
COc1cc(Cc2cnc(N)nc2N)cc(/C=C/C(=O)N2N=Cc3ccccc3C2c2cnc(N(C)C)nc2)c1OC (configuration not stated)	0.12 µg/mL
COc1cc(Cc2cnc(N)nc2N)cc(OC)c1OC [TRIMETHOPRIM]	16 µg/mL
COc1cc(Cc2cnc(N)nc2N)cc(/C=C/C(=O)N2N=Cc3ccccc3C2c2cnc(N3CCOCC3)nc2)c1OC (configuration not stated)	0.12 µg/mL
CN(C)c1ccc(O)c2c1C[C@H]1C[C@H]3[C@H](N(C)C)C(O)=C(C(N)=O)C(=O)[C@@]3(O)C(O)=C1C2=O [MINOCYCLINE]	2 µg/mL

*Q* Form field: reported MIC50 of COc1c(N2C[C@@H]3CCCN[C@@H]3C2)c(F)cc2c(=O)c(C(=O)O)cn(C3CC3)c12 [MOXIFLOXACIN]
*A* 1 µg/mL

*Q* Form field: reported MIC50 of CCCCCCCCCC(=O)N[C@@H](Cc1c[nH]c2ccccc12)C(=O)N[C@H](CC(N)=O)C(=O)N[C@@H](CC(=O)O)C(=O)N[C@@H]1C(=O)NCC(=O)N[C@@H](CCCN)C(=O)N[C@@H](CC(=O)O)C(=O)N[C@H](C)C(=O)N[C@@H](CC(=O)O)C(=O)NCC(=O)N[C@H](CO)C(=O)N[C@@H]([C@H](C)CC(=O)O)C(=O)N[C@@H](CC(=O)c2ccccc2N)C(=O)O[C@@H]1C
*A* 0.06 µg/mL

*Q* Form field: reported MIC50 of CC(=O)NC[C@H]1CN(c2ccc(N3CCOCC3)c(F)c2)C(=O)O1 [LINEZOLID]
*A* 0.06 µg/mL

---

- System: Streptococcus sp. 'group A'
- protocol.notes: Antimicrobial activity against Group A Streptococcus by agar dilution method
- Format: functional
readout.kind: MIC90 (µg/mL)
Please give a number only; it is taken to be in µg/mL.

Consider the reported MIC90 for these compounds:
CC(=O)NC[C@H]1CN(c2ccc(N3CCOCC3)c(F)c2)C(=O)O1	1
COc1ncc(C2c3ccccc3C=NN2C(=O)/C=C/c2cc(Cc3cnc(N)nc3N)cc(OC)c2OC)cn1 (centres undefined)	0.06
CN[C@H](CC(C)C)C(=O)N[C@H]1C(=O)N[C@@H](CC(N)=O)C(=O)N[C@H]2C(=O)N[C@H]3C(=O)N[C@H](C(=O)N[C@H](C(=O)O)c4cc(O)cc(O)c4-c4cc3ccc4O)[C@H](O)c3ccc(c(Cl)c3)Oc3cc2cc(c3O[C@@H]2O[C@H](CO)[C@@H](O)[C@H](O)[C@H]2O[C@H]2C[C@](C)(N)[C@H](O)[C@H](C)O2)Oc2ccc(cc2Cl)[C@H]1O	0.25

Next item in the queue.
*Q* Form field: reported MIC90 of COc1cc(Cc2cnc(N)nc2N)cc(/C=C/C(=O)N2N=Cc3ccccc3C2c2cnc(N(C)C)nc2)c1OC (centres undefined)
*A* 0.06

---

- Tested on: Streptococcus sp. 'group A'
- protocol.notes: Antimicrobial activity against Group A Streptococcus by agar dilution method
- Assay type: functional
The compounds listed here are annotated with their MIC90.
Please give a number only; it is taken to be in µg/mL.

Consider the reported MIC90 for these compounds:
CN(C)c1ccc(O)c2c1C[C@H]1C[C@H]3[C@H](N(C)C)C(O)=C(C(N)=O)C(=O)[C@@]3(O)C(O)=C1C2=O	0.25
COc1cc(Cc2cnc(N)nc2N)cc(OC)c1OC	1
CCCCCCCCCC(=O)N[C@@H](Cc1c[nH]c2ccccc12)C(=O)N[C@H](CC(N)=O)C(=O)N[C@@H](CC(=O)O)C(=O)N[C@@H]1C(=O)NCC(=O)N[C@@H](CCCN)C(=O)N[C@@H](CC(=O)O)C(=O)N[C@H](C)C(=O)N[C@@H](CC(=O)O)C(=O)NCC(=O)N[C@H](CO)C(=O)N[C@@H]([C@H](C)CC(=O)O)C(=O)N[C@@H](CC(=O)c2ccccc2N)C(=O)O[C@@H]1C	0.03
COc1cc(Cc2cnc(N)nc2N)cc(/C=C/C(=O)N2N=Cc3ccccc3C2c2cnc(N3CCOCC3)nc2)c1OC (stereo not given)	0.12

Next item in the queue.
*Q* Form field: reported MIC90 of COc1c(N2C[C@@H]3CCCN[C@@H]3C2)c(F)cc2c(=O)c(C(=O)O)cn(C3CC3)c12
*A* 0.5

---

- System: Staphylococcus aureus
- protocol.notes: Antimicrobial activity against methicillin-resistant Staphylococcus aureus by agar dilution method
- Format: functional
readout.kind: MIC90
The answer should read as a number with its unit following.

Consider the reported MIC90 for these compounds:
COc1cc(Cc2cnc(N)nc2N)cc(/C=C/C(=O)N2N=Cc3ccccc3C2c2cnc(N3CCOCC3)nc2)c1OC (centres undefined)	0.06 µg/mL
COc1cc(Cc2cnc(N)nc2N)cc(/C=C/C(=O)N2N=Cc3ccccc3C2c2cnc(N(C)C)nc2)c1OC (centres undefined)	0.25 µg/mL
CCCCCCCCCC(=O)N[C@@H](Cc1c[nH]c2ccccc12)C(=O)N[C@H](CC(N)=O)C(=O)N[C@@H](CC(=O)O)C(=O)N[C@@H]1C(=O)NCC(=O)N[C@@H](CCCN)C(=O)N[C@@H](CC(=O)O)C(=O)N[C@H](C)C(=O)N[C@@H](CC(=O)O)C(=O)NCC(=O)N[C@H](CO)C(=O)N[C@@H]([C@H](C)CC(=O)O)C(=O)N[C@@H](CC(=O)c2ccccc2N)C(=O)O[C@@H]1C	0.25 µg/mL

Next item in the queue.
*Q* Form field: reported MIC90 of COc1cc(Cc2cnc(N)nc2N)cc(OC)c1OC [TRIMETHOPRIM]
*A* 32 µg/mL

---

The compounds listed here are annotated with their Activity.
- Tested on: Staphylococcus aureus
- protocol.notes: Antimicrobial activity against methicillin-sensitive Staphylococcus aureus assessed as susceptible isolates by agar dilution method
- Type: functional
Please give a number only; it is taken to be in %.

Consider the reported Activity for these compounds:
CCCCCCCCCC(=O)N[C@@H](Cc1c[nH]c2ccccc12)C(=O)N[C@H](CC(N)=O)C(=O)N[C@@H](CC(=O)O)C(=O)N[C@@H]1C(=O)NCC(=O)N[C@@H](CCCN)C(=O)N[C@@H](CC(=O)O)C(=O)N[C@H](C)C(=O)N[C@@H](CC(=O)O)C(=O)NCC(=O)N[C@H](CO)C(=O)N[C@@H]([C@H](C)CC(=O)O)C(=O)N[C@@H](CC(=O)c2ccccc2N)C(=O)O[C@@H]1C	100
CN[C@H](CC(C)C)C(=O)N[C@H]1C(=O)N[C@@H](CC(N)=O)C(=O)N[C@H]2C(=O)N[C@H]3C(=O)N[C@H](C(=O)N[C@H](C(=O)O)c4cc(O)cc(O)c4-c4cc3ccc4O)[C@H](O)c3ccc(c(Cl)c3)Oc3cc2cc(c3O[C@@H]2O[C@H](CO)[C@@H](O)[C@H](O)[C@H]2O[C@H]2C[C@](C)(N)[C@H](O)[C@H](C)O2)Oc2ccc(cc2Cl)[C@H]1O	100
COc1ncc(C2c3ccccc3C=NN2C(=O)/C=C/c2cc(Cc3cnc(N)nc3N)cc(OC)c2OC)cn1 (centres undefined)	100

*Q* Form field: reported Activity of COc1cc(Cc2cnc(N)nc2N)cc(OC)c1OC
*A* 92
